molecular target: Bcl-2-related protein A1 (Homo sapiens) (UniProt Q16548); test: Bfl-1/Bim complex disruptors – biochemical, multiplexed, bead-based flow cytometry, primary screen (AID 1008); settings: Bim-Bfl-1 binding inhibition, at 10 µM, stronger effect = higher value;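 further: 0% = wells without compound plus tracer and 100% = blocker peptide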
Sequence (Q16548 whole entry, looked up): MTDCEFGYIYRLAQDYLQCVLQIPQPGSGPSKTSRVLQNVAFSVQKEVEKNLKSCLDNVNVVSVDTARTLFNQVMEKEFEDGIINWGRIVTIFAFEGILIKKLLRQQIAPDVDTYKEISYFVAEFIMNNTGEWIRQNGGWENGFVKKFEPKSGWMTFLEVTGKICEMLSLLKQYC
Screen size: about 190,000 compounds; about 240 (0.13%) were called active. The full list was thinned out, with actives kept by preference.
Property: inhibition; scope: individual compounds
ENDPOINT_NAME: inhibition (%)

* S=c1ccc2ccccc2[nH]1 | -4
* C/C(=N\NC(=O)c1cc2c(s1)CCC(C)C2)c1cccnc1 (stereo not given) | 0
* CCCCN=C1C([N+](=O)[O-])=CC=C2C1=NC1(CCCCC1)N2O | 0
* Cc1ccc(C2=N/C(=C\c3ccc(OS(=O)(=O)c4ccc(C)cc4)cc3)C(=O)O2)cc1 | -2
* CCC(O)C1CCN(Cc2cn(-c3ccc(OC)cc3)nc2-c2cccc(F)c2)CC1 (stereo not given) | -8

###

Catalogue of inhibition readings, one per entry.
biological target: Bcl-2-related protein A1 (Homo sapiens) (UniProt Q16548); experiment: Bfl-1/Bim complex disruptors – biochemical, multiplexed, bead-based flow cytometry, primary screen (AID 1008); details: Bim-Bfl-1 binding inhibition, at 10 µM, stronger effect = higher value;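 further: 0% = wells without compound plus tracer and 100% = blocker peptide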
About 240 (0.13%) of roughly 190,000 compounds were called active. The entries come from a sample that favours actives as a whole.
ENDPOINT_NAME: inhibition

* CCCCNC(=S)N/N=C1\CCCCc2ccccc21 | 0% (inactive)
* Cc1ccc(/C=N/NC(=O)CNC(=O)COc2ccccc2)o1 | -12% (inactive)
* O=C(/C=C/c1ccc(Cl)cc1)Nc1ccc(Br)cn1 | -6% (inactive)
* Cc1ccc(C2CCN(C(=S)Nc3cccc(Cl)c3)C2)cc1 (stereo not given) | -4% (inactive)
* COc1cccc(CNC(=O)CCC2CCCN(Cc3ccc(OC(F)F)cc3)C2)c1 (stereo not given) | -4% (inactive)
* CC(C)(C)NCCCOc1ccc(Cl)cc1C(C)(C)C | -1% (inactive)
* Cc1nnc(-c2ccc(Oc3ccc(C)c(C)c3)c([N+](=O)[O-])c2)o1 | 9% (inactive)
* C/C(=N/NS(=O)(=O)c1ccccc1)c1ccc(NC(=O)C(F)(F)F)cc1 | -2% (inactive)
* O=C(Cn1nc(CNc2ccc(Cl)cc2)[n+]2c1CCCCC2)c1ccc(Cl)cc1 | -16% (inactive)
* O=C(O)CSc1nccc2ccccc12 | 5% (inactive)

###

molecular target: Bcl-2-related protein A1 (Homo sapiens) (UniProt Q16548); experiment: Bfl-1/Bim complex disruptors – biochemical, multiplexed, bead-based flow cytometry, primary screen (AID 1008); settings: Bim-Bfl-1 binding inhibition, at 10 µM, stronger effect = higher value;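 further: 0% = wells without compound plus tracer and 100% = blocker peptide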
The campaign covered roughly 190,000 compounds. About 240 (0.13%) were called active. The sample holds actives, similar compounds and a random draw of the others, so the mix is not that of the screen.
ENDPOINT_NAME: inhibition (%)

• COc1ccc(-c2ccc(CCC(=O)O)n2-c2ccc(O)cc2)cc1 = 5
• CC1CCN(S(=O)(=O)c2ccc(S(=O)(=O)NCc3cccnc3)cc2)CC1 = 6
• N#C/C(=C(\O)C(F)(F)F)c1nnc2n1CCCCC2 = -5
• CCCCNS(=O)(=O)c1ccc2nc(SCC(=O)Nc3cc(C)cc(C)c3)[nH]c2c1 = -1
• Cc1ccc(NC(=O)c2ccn(C(=O)Nc3ccccc3)n2)c(C)c1 = -2
• COc1ccc(S(=O)(=O)Nc2ccc(O)c(Sc3nc4ccccc4s3)c2)cc1 = 9
• Cc1cccc(CSc2nc3c(c(=O)n2C)SCC3)c1 = -2
• CCOC(=O)Cc1csc(NC(=O)COc2ccc3c(C)cc(=O)oc3c2)n1 = -4
• O=[N+]([O-])c1c(NCCO)cc(Sc2nc3ccccc3s2)c2nonc12 = 56
• O=C(NNC(=O)C1C2CCC(C2)C1C(=O)O)c1ccc(Cl)cc1 (stereo not drawn) = -8
• CCc1ccccc1NC(=O)CN(c1ccc(OC)cc1OC)S(=O)(=O)c1ccccc1[N+](=O)[O-] = -12
• CCO[C@H]1OC(C(=O)N2CCCCCCC2)=C[C@@H](c2ccc(C(F)(F)F)cc2)[C@@H]1CCCO = -7
• O=C(CCC(=O)Nc1ccccc1)N/N=C/c1ccccc1F = -4
